# study.target: human glucagon receptor (human) (UniProt P47871)
# Sequence (P47871 26-477): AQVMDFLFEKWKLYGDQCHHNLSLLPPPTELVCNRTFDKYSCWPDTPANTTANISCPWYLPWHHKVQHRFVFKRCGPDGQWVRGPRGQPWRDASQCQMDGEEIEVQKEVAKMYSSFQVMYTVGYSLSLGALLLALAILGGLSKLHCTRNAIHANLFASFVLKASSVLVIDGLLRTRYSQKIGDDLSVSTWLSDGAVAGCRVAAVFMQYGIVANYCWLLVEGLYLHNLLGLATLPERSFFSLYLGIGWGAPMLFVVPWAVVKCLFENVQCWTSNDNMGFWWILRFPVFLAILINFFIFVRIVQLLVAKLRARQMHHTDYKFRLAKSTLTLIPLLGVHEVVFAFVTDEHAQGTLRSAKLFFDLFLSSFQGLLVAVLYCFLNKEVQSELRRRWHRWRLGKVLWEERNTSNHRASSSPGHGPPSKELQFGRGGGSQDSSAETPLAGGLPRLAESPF
# test.summary: cell-based or functional assay
Outcome label depends on cAMP Rel EC50 (receptor-expressing HEK-293 cells, 1% HSA) relative to 200 nM: at/above gives Condition met, below gives Condition not met.

Reference set, count: 4
{"binder": "YXQGTXTSDYXILLDKKAQXAFIEYLEEGGPSSGEPPPE (synthetic construct; SITE 2: note = 2-Aminoisobutyric Acid; SITE 6: note = alpha-methyl-2-fluoro-L-phenylalanine; SITE 11: note = alpha-methyl-L-serine; SITE 17: note = Lysine is chemically modified through conjugation of the epsilon-amino group of the Lysine side chain with (2-[2-(2-Amino-ethoxy)-e)) [Example 469]", "classification": "Condition not met"}
{"binder": "HXQGTXTSDXXIXLDXKAQXAFIEYLLEGGPSSGEPPPE (synthetic construct; SITE 2: note = 2-Aminoisobutyric Acid; SITE 6: note = alpha-methyl-2-fluoro-L-phenylalanine; SITE 10: note = 3-(4-Pyridyl)-L-alanine; SITE 11: note = alpha-methyl-L-serine; SITE 13: note = alpha-methyl-leucine; SITE 16: note = L-ornithine; SITE 17: note = Lysine is chemically mo) [Example 466]", "classification": "Condition met"}
{"binder": "HXQGTXTSDXXIXLDXKAQXAFIEYLLEGGPSSGEPEPE (synthetic construct; SITE 2: note = 2-Aminoisobutyric Acid; SITE 6: note = alpha-methyl-2-fluoro-L-phenylalanine; SITE 10: note = 3-(4-Pyridyl)-L-alanine; SITE 11: note = alpha-methyl-L-serine; SITE 13: note = alpha-methyl-leucine; SITE 16: note = L-ornithine; SITE 17: note = Lysine is chemically mo) [Example 479]", "classification": "Condition met"}
{"binder": "YXQGTXTSDXSIXLDKKAQXAFIEYLEEGGPSSGEPPPE (synthetic construct; SITE 2: note = 2-Aminoisobutyric Acid; SITE 6: note = alpha-methyl-2-fluoro-L-phenylalanine; SITE 10: note = 3-(4-Pyridyl)-L-alanine; SITE 13: note = alpha-methyl-leucine; SITE 17: note = Lysine is chemically modified through conjugation of the epsilon-amino group of the Lysine) [Example 487]", "classification": "Condition met"}

Here is another binder to look at.
Record YXQGTXTSDYSILLDKKAQXAFIEYLEEGGPSSGAPPPEEG (non-natural residues, C18 diacid acylation, C-terminal amide; synthetic construct; SITE 2: note = 2-Aminoisobutyric Acid; SITE 6: note = alpha-methyl-2-fluoro-L-phenylalanine; SITE 17: note = Lysine is chemically modified through conjugation of the epsilon-amino group of the Lysine side chain with (gamma-Glu)2-CO-(CH2)16-CO2H; SITE 20: note = 2-Aminoisobutyric) [Example 471] ; criterion: cAMP Rel EC50 (receptor-expressing HEK-293 cells, 1% HSA) no lower than 200 nM. Met? Condition not met
